Run description: soluble on expression in E. coli; label from the status in PepcDB or PDB records
Value type: soluble on expression in E. coli

Example entries begin here.
[[record]]
macromolecule_sequence = "MCSSPTTLFLLFALVSTSYALLGVGRTQSVAVSGRVICNGQPASGVKLKLYEKESTFDVLLEEATSDANGQFRLSGSKTEISTIDPKLNIYHKCNYNGLCYKKIGITIPDNYVSSGKTPSKTYDIGTLNLANQYTGQTTDCIN"
result = "not soluble"

[[record]]
macromolecule_sequence = "MPQNEHIELHRKRHGRRLDHEERQRKKLARAAHDRSQMAKTLRGHKAKLYHKKRYSEKVEMRKLLKQHEEKDQKNTVEQPDKGAVPAYLLDRQQQTSGTVLSNMIKQKRKQKAGKFNVPIPQVRAVSDAEAFKVVKTGKTNRKGWKRMVTKVTFVGESFTRKPAKFERFIRPMGLRFKKAHVTHPELQTTFHLPIVGVKKNPSSQMYTSLGVITKGTILEVNVSELGMVTQGGKVVWGKFAQVTNNPENDGCINAVLLI"
result = "not soluble"

[[record]]
macromolecule_sequence = "MGSDKIHHHHHHMAELQEVQITEEKPLLPGQTPETAKEAELAARILLDQGQTHSVETPYGSVTFTVYGTPKPKRPAIFTYHDVGLNYKSCFQPLFRFGDMQEIIQNFVRVHVDAPGMEEGAPVFPLGYQYPSLDQLADMIPCILQYLNFSTIIGVGVGAGAYILSRYALNHPDTVEGLVLINIDPNAKGWMDWAAHKLTGLTSSIPDMILGHLFSQEELSGNSELIQKYRGIIQHAPNLENIELYWNSYNNRRDLNFERGGETTLKCPVMLVVGDQAPHEDAVVECNSKLDPTQTSFLKMADSGGQPQLTQPGKLTEAFKYFLQG"
result = "not soluble"

[[record]]
macromolecule_sequence = "MLLSLYIPPGRPIPDVLNLLRQEYSIAQNIKLKRTRDAVTSAIQSAIDRLTQIPKVPDNGLVIFCGENFETEESKCFVFSPPEKVTIFFYRTDKYFHTEFLEDMIEENDVFGLIIVERDYATIGILKGTRIEVLDEFEGFVPGKHMMGGQSQRRIDRIIEEMYANFLKEVGEKANSYLLPYLESGKLKGILLGGPGYAKKDFYDGDYLDYRLKKLVLLPLIDIPDQGDAGLKELVMKAQDILKNQKYVQVQNLLEELKYHIAKDDGLVVYGIEEIRKALHMGAVDSLVIYDEPNSELEKLSQEAENYGTKVYVVGDELPDAEWVKKTFGGAIGKLRYKIY"
result = "soluble"


Name the reported soluble on expression in E. coli value associated with the sequence "MRGSHHHHHHGMASMTGGQQMGRDLYDDDDKDPMSVIKPDMKIKLRMEGAVNGHPFAIEGVGLGKPFEGKQSMDLKVKEGGPLPFAYDILTTVFCYGNRVFAKYPENIVDYFKQSFPEGYSWERSMNYEDGGICIATNDITLDGDCFIYEIRFDGVNFPANGPVMQKRTVKWEPSTEKLYVRDGVLKGDVNMALLLEGGGHYRCDFKTTYKAKKVVQLPDYHFVDHRIEIKSHDKDYNNVNLHEHAEAHSGLPRQAK"
soluble

What value of measured soluble on expression in E. coli is listed for "MSGRKIAAATVQNRTQTPFWNWLKQKLLASDRLPITPPPGIAGPDGKAVYQNPLRFPNTQSARPCSAELPALPGGVHHKLADNYYLTRDGRRNVDAPKVLYSSGEFVGGEKAQPAQVNQGVATNFGLTAPTPGFGAEWSRSKQNELASQQKNTEFEYLQRFDKFTKSA" ?
not soluble

* * *

Run description: soluble on expression in E. coli; label from the status in PepcDB or PDB records
Value type: soluble on expression in E. coli

Sample answers from the record:
[[record]]
macromolecule_sequence = "MGSDKIHHHHHHMTQLKTLPIYDPTLFEGAAEVYAQYRTKYPPAVFDKLTEIFNLNGQGRLLDLGTGPGLIAIPLSTKFQEVVAIDPDPEMLKEAQRQAATAGANNITWLEQGAELINPSLGVFKLATIGRAFHWMERQLVLERLYELLADDGAIALLNTGDDPWKSPLPWKQAAIGVVKKWLGEERRTGQRGQGIRKPVDPPHEVVIANSKFARQEVHEVTFEKSWTVSSYLGYLYTTAFSLKIFYGDKAEEFEADIKDALLAVEPSGHFTEELKATIQVVWKH"
result = "not soluble"

[[record]]
macromolecule_sequence = "MGSDKIHHHHHHMINCIIVEDAPLAVDKLKNFISKVPLLDLAGTFDNGLDAFDFLQSNTIDLLFLDIQMEQFTGLQLLQALHTRPHIIIVSAYGEYAVQGFEYDVTDYLLKPYSFERFLKAVNKVQTEMASNPPAQPLPKDYIFLKTEYRMVRINLCDILYIEGKGAYLHVITDTTRIMTLLSFKEIESLLPAKQFIRIHKSYLIAINKIDNIERNVVKIANMRIPIGKSYLKDFYLRLQ"
result = "not soluble"

[[record]]
macromolecule_sequence = "MSLTLAFAYVRASTIEEVRQGSNERQKEAIRQYTYQKGYELEIFEDKAKSGRNTLRPEFERMLKSLDRRPQIVIVSKIDRFARSLSDLLKTLEYLDQNGVGFVSVNDPGIDTTTPNGRLLLQILGAFAEFERNMINSRTKAGREQAQSKGVKKGIITITTDPNSSSVDKLAAALEHHHHHH"
result = "soluble"

[[record]]
macromolecule_sequence = "MGSDKIHHHHHHMHYPPMIATTLPDGPEQTPLTAEIVLRYHLCWKHRDLDGVMALYHPDIQYHDFFQNRVLGHQELRDYVRACLPHEAGEDIVHSDRIRVDGSTAFIQYQVTVQGGDGLVAFQSSEAITVRDGLIWRVNEYATLVRQNGTGHANSGPRPATSRLGLSPRQLSTMAQDLEHYFRRQRPYLDPELDLQQVADASGYSRNQISYLLNQVLGQSFYRYVNQARLQHLMASLGDDSVEATIDELAFSAGFNSLSAFYKCFREHTGFTPKAYLKQISLRART"
result = "not soluble"

[[record]]
macromolecule_sequence = "ASGRRAPRTGLLELRCGAGSGAGGERWQRVLLSLAEDALTVSPADGEPGPEPEPAQLNGAAEPGAAPPQLPEALLLQRRRVTVRKADAGGLGISIKGGRENKMPILISKIFKGLAADQTEALFVGDAILSVNGEDLSSATHDEAVQALKKTGKEVVLEVKYMKEVSPYFKNSAGGTSVGWDSPPASPLQRQPSSPGPQPRNLSEAKHVSLKMAYVSRRCTPTDPEPRYLEICAADGQDAVFLRAKDEASARSWAGAIQAQIGT"
result = "soluble"

[[record]]
macromolecule_sequence = "AIAVLLRHPVLGTEQLPDSWPSHWNTAIVGIPGYSRQRSDLSVVKDVSSPCLPLVAMPSCDDGLASLWNDVSRAV"
result = "soluble"


Turning to the following sequence.
Which soluble on expression in E. coli value is on record for "MIHQFHSEQQFRSLGMCVVSTFGSGRACTFIGALYAIHQLNNGVEPNIFEIMKTIKQQRPGAIESFPQYSGVYAIVLDYISRKRGGKSDPVNKYINRFLADLTEILPACSTLPVMNPSTELH" ?
not soluble

* * *

Run description: soluble on expression in E. coli; label from the status in PepcDB or PDB records
Value type: soluble on expression in E. coli

[[record]]
macromolecule_sequence = "GSADAPRDRHRTIVVGGDRDYPPYEFIDQNGKPAGYNVELTRAIAEVMGMTVEFRLGAWSEMFSALKSGRVDVLQGISWSEKRARQIDFTPPHTIVYHAIFARRDSPPAAGLEDLRGRKVALHRDGIMHEYLAERGYGKDLVLTPTPADALRLLAAGGCDYAVVAMVPGMYIIRENRLTNLVPVARSIAAQRYGYAVRQGDAELLARFSEGLAILRKTGQYEAIRAKWLGVLEP"
result = "soluble"

[[record]]
macromolecule_sequence = "MAHHHHHHMDSDLSAEIARIEAELAQDAELRQQQQQLAPQQPPASLFGFGQTAPVQPQQQQQQQLFQTQPPQPQQQPSNPFNVNASPFMPTPQQPDYSQQQQQQQQPIGSAGQAAAQASAPTPIIHSFSKDTDSRSIFIGNLPRGTDGTPTTTPEELVQFFADCGNILNCTVLKDRATGEPKGTAYIEFADYTAMGKAIDTKNNANFKGSTIIVCVSTSPLFSLAGFFG"
result = "soluble"

[[record]]
macromolecule_sequence = "QKNPDSYNGAVRENYTWSQDYTDLEVRVPVPKHVVKGKQVSVALSSSSIRVAMLEENGERVLMEGKLTHKINTESSLWSLEPGKCVLVNLSKVGEYWWNAILEGEEPIDID"
result = "soluble"

[[record]]
macromolecule_sequence = "GSCEKENIGIEVTPVNAKFIITPVVIDATTGTDVTQSAEISFSKGNGTYEGTPELASESININAKYKGMTGSASVTIPALKAGQFGAKEVTIILSENFFAQEESSNSQIETTKHSGFKNNTSDYWYYITVTYTKKEGSEVIKNDYEGDDSEIKNIIDAYNKGVREDKVTLNDVQVLAHSRFSVFVDYMKTTSVYQIIEKSPKRDGNPVASFTVDSYNTIVSPKNEQIPGHGHAPSHGHGHGHGDDSNAGGGIIIAD"
result = "soluble"


Origin of the recorded values: the DeepSol protein solubility set
